Tested on: NCI/ADR-RES ovarian
Assay: NCI-60 one-dose screen, 48 h
Details: 10 µM unless noted
Compounds without any hit were thinned out: in the full panel of roughly 83,000, 20% have a hit. Activity calls are given as the source filed them. The calls were made as follows: active = growth percent below 10; inactive = the rest.
Possible outcomes: yes (1) = active, no (0) = inactive

1. CC(=O)OC[C@]12CCC(C)(C)C[C@H]1[C@@]1(O)[C@H](O)C[C@@H]3[C@@]4(C)CCCNC(C)(C)[C@@H]4CC[C@@]3(C)[C@]1(C)CC2
no (0)
2. O=C(CN1C(=O)CCC1=O)Nc1ncc(Cc2ccc(F)cc2)s1
no (0)
3. CNC(=O)c1cc(Oc2ccc3c(c2)sc2nc(-c4cc(OC)c(OC)c(OC)c4)cn23)ccn1
no (0)
4. CCOC(=O)CSc1ncnc2c1c(-c1ccccc1)c(-c1ccccc1)n2-c1ccc(C)cc1
no (0)
5. COc1cc(CNS(=O)(=O)c2ccc(C)cc2)ccc1OCc1cn(-c2ccc(Br)cc2)nn1
no (0)
6. O=S(=O)(NCCCNc1nccc(-c2c(-c3ccc(F)c(O)c3)nc3occn23)n1)c1ccccc1
no (0)
7. O=C(CCc1nnc(Cn2cnc3nc[nH]c3c2=O)o1)c1nc2ncccc2[nH]1
no (0)
8. O=C(Cn1cc(CN2C(=O)c3ccccc3S2(=O)=O)nn1)Nc1nc2ccccc2s1
no (0)
9. CCCCCOc1ccc(C(=O)/C(Br)=C/C(=O)O)cc1
no (0)
10. CCOC(=O)c1cc(-c2ccc([N+](=O)[O-])cc2)n(-c2ccc(C(=O)O)c(O)c2)c1C
no (0)
11. Cc1cc(Cl)ccc1NC(=O)c1cc2ccccc2cc1O
yes (1)
12. O=C(CSc1nnc2n1S(=O)(=O)c1ccccc1N2c1ccccc1)Nc1nc2ccc(F)cc2s1
no (0)
13. O=S(=O)(Nc1ccccc1)c1ccc(C2CC3(Cl)C(Cl)=C(Cl)C2(Cl)C3(Cl)Cl)cc1 (stereo unspecified)
no (0)
14. COc1cc2c(c(OC)c1OC)C(=O)CC(c1cccc(NC(=O)c3ccc(Br)cc3)c1)O2 (stereo unspecified)
yes (1)
15. COCCn1cc(-c2nc(-c3cc4cccnc4n3CCOC)cs2)c2cc(OC)ccc21
no (0)
16. CC(C)c1ccc(NC(=O)Nc2ccc(NC(=O)CCCC(=O)NOCc3ccccc3)cc2)cc1
no (0)
17. COC1C[C@H](O[C@@H]2C[C@H](O[C@@H]3C[C@H](O[C@@H]4C(=O)c5c(cc6cc(O[C@H]7C[C@@H](O[C@H]8C[C@@H](O)[C@H](O)C(C)O8)[C@H](O)C(C)O7)c(C)c(O)c6c5O)C[C@H]4C(OC)C(=O)[C@@H](O)[C@@H](C)O)OC(C)[C@H]3O)OC(C)[C@@H]2O)OC(C)[C@@H]1O (stereo partly specified)
no (0)
18. N#CC1=C(c2ccc(Cl)cc2)Nc2c(c(-c3ccc(Cl)cc3)nn2-c2ccccc2)C12C(=O)Nc1ccc(Cl)cc12 (stereo unspecified)
no (0)
19. CC(=O)n1nc(C(=O)OC(C)C)c2cc(C)c(C)cc21
no (0)
20. CCOC(=O)C1=NN(c2ccccc2)C(=O)/C1=C\N1C(=O)CC(=O)NC1=S
no (0)
21. CN1C(=O)/C(=C/c2ccc(C(=O)Nc3ncc(Cc4ccc(Cl)cc4)s3)cc2)SC1=S
no (0)
22. Brc1c2c(c(Br)c3ccccc13)CCCC2
no (0)
23. O=C(c1ccc(-c2ccccc2)cc1)c1ccc([N+](=O)[O-])cc1
no (0)
24. C/C(Nc1ccc(Cl)c(Cl)c1)=C1\CCOC1=O
no (0)
25. COC(=O)c1cc(-c2ccc(OC)cc2)[nH]c1N/N=C/c1c(Cl)cccc1Cl
no (0)
26. N#C/C(=C\c1ccc2ccccc2c1)c1cc2ccccc2[nH]1
no (0)
27. c1ccc(C2=NN[C@H](c3cn(-c4ccccc4)nc3-c3ccccc3)C2)cc1
no (0)
28. COc1cc(-c2nc(SCCC(C)C)nc(Nc3ccccc3Cl)c2C#N)cc(OC)c1OC
no (0)
29. CN(C)CCCC1(c2ccc(F)cc2)OCc2cc(-c3cccc4[nH]ccc34)ccc21 (stereo unspecified)
no (0)
30. O=C1/C(=C/c2ccccc2Br)COc2ccc(O)c(O)c21
yes (1)
31. Nc1ncnc2c1N=C(c1ccc3c(c1)OCO3)CC(c1ccc([N+](=O)[O-])cc1)N2 (stereo unspecified)
no (0)
32. COc1cc(CNC(=O)/C=C/C=C/c2ccc3c(c2)OCO3)ccc1OCc1cn(-c2ccc(C)c(C)c2)nn1
no (0)
33. CC(C)CCNC(=O)Cn1cccc(NC(=O)OCc2ccccc2)c1=O
no (0)
34. C[C@]12CC[C@@H]3c4ccc(O)c([N+](=O)[O-])c4CC[C@H]3[C@@H]1CCC2=O
no (0)
35. O=C1c2ccc3c4ccc5c6c(ccc(c7ccc(c2c37)C(=O)N1CCC[P+](c1ccccc1)(c1ccccc1)c1ccccc1)c64)C(=O)N(CCC[P+](c1ccccc1)(c1ccccc1)c1ccccc1)C5=O
no (0)
36. C#COc1cccc(Nc2ncnc3ncc(NC(=O)CCl)cc23)c1
no (0)

====

Tested on: NCI-H226 lung
Assay: NCI-60 one-dose screen, 48 h
Conditions: 10 µM unless noted
Compounds without any hit were thinned out: in the full panel of roughly 83,000, 20% have a hit. Calls of active or inactive are those of the source. The calls were made as follows: active = growth percent below 10; inactive = the rest.
Possible outcomes: y (active), n (inactive)

1) CN([O-])c1nc(N(C)[O-])nc(N2CCOCC2)n1.CN([O-])c1nc(N(C)[OH2+])nc(N2CCOCC2)n1.[Fe+3]
n
2) CN1C(=O)N(C)C2Nn3c(s/c(=C\c4ccc(C(F)(F)F)cc4)c3=O)=NC21 (stereo not given)
n
3) CN(C)CCNc1nc2c3cc(Cl)ccc3nn2c2ccccc12
n
4) O=C1c2cccnc2C(=O)c2c1c(C(=O)NCCCN1CCCCC1)c1ccccn21
y
5) O=C(O)CNC1=C(Cl)C(=O)c2ccccc2C1=O
n
6) CCO/C=N/C1=C(C#N)C(c2ccc(OC)cc2)c2sc3c(F)cccc3c2O1 (stereo not given)
n
7) CCc1n(Cc2ccc3ccccc3c2)cc[n+]1Cc1ccc2ccccc2c1
y
8) CCc1ccc(Oc2cn[nH]c2-c2ccc(OCCc3ccc(F)cc3)cc2O)cc1
n
9) CN(C)CCCC1(c2ccc(F)cc2)OCc2cc(-c3cccc4[nH]ccc34)ccc21 (stereo not given)
n
10) c1cnc2[nH]cc(-c3csc(-c4cn(CCCN5CCOCC5)c5ccccc45)n3)c2c1
n
11) CC1(C)c2[nH]c3ccccc3c2C[C@]2(C)[C@H]3CC=C4[C@@H]5C[C@@](C)(C(N)=O)CC[C@]5(C)CC[C@@]4(C)[C@]3(C)CC[C@@H]12
n
12) O=C(c1ccc(-c2nc(CSc3nc4ccccc4s3)no2)cc1)N1CCSCC1
n
13) COc1cc(/C=C\c2cc(/C=C\c3ccc(O)c(OC)c3)n(C(=O)COc3ccc(Cl)cc3Cl)n2)ccc1O
n
14) O=C(CN1C(=O)CCC1=O)Nc1ncc(Cc2ccc(F)cc2)s1
n
15) Oc1c(Cl)cc(Cl)c2ccc(Cn3cc(-c4cc(C(F)(F)F)cc(C(F)(F)F)c4)nn3)nc12
n
16) O=C(CCCCC1CCSS1)Nc1ncnc2n[nH]c(-c3ccc(Oc4ccccc4)cc3)c12 (stereo not given)
n
17) COc1cc(-c2cc(-c3cccs3)c(C#N)c(N3CCOCC3)n2)cc(OC)c1OC
n
18) CS(=O)(=O)C1=CN(CCO)C(=O)N2CCCN=C12
n
19) O=C1Nc2ccc(Br)cc2/C1=N/c1n[nH]c(=S)s1
n
20) CN(CCOc1ccc(C#N)cc1)CCOc1ccc(C#N)cc1
n

====

Collected growth values appear next to each entry.
Test system: BT-549 breast
Test: NCI-60 one-dose screen, 48 h (100 = growth as untreated, 0 = no growth, -100 = all killed)
Conditions: 10 µM unless noted
Compounds without any hit were thinned out: in the full panel of roughly 83,000, 20% have a hit.
MEASURED_ENDPOINT: growth (%)

1) O=C(c1ccccc1)C1C(=O)N2C(=S)N(c3ccccc3)C(=O)C2C1c1ccc(Cl)cc1 (stereo not given)
88.6
2) Cn1ccnc1C(=O)C(=O)Nc1ccc(CC(=O)Nc2ccccc2)cc1
103
3) Cc1ccccc1NC(=O)c1sc2nc(C)c(C(=O)/C=C/c3ccccc3)cc2c1N
21.5
4) COc1cc2c(c(OC)c1OC)-c1ccc(OC)c(=O)cc1[C@@H](NC(=O)CCl)CC2
-48.8
5) c1ccc(CNc2c3ccccc3nc3ccccc23)cc1
72.8

====

Test system: CAKI-1 renal
Test: NCI-60 one-dose screen, 48 h (100 = growth as untreated, 0 = no growth, -100 = all killed)
Conditions: 10 µM unless noted
Compounds without any hit were thinned out: in the full panel of roughly 83,000, 20% have a hit.
MEASURED_ENDPOINT: growth (%)

1) CC(C)(C)n1cc(-c2ccnc(NCCNS(=O)(=O)c3cccc(F)c3)c2)c(-c2ccccc2)n1
90.4
2) COc1cccc([C@H]2c3[nH]c4ccccc4c3C[C@H]3C(=O)N(CCCCCCC(=O)NO)CC(=O)N23)c1
75.1
3) COC(=O)c1c2c(c(C)[n+]([O-])c1C)C(=O)C=C(NCc1ccc(Br)cc1)C2=O
-25.7
4) CCn1c(=S)[nH]c2c(=O)n(C)c(=O)n(C)c21
102
5) COc1cc(N2C(=O)[C@H](O)C2c2ccc(SC)cc2)cc(OC)c1OC (stereo not given in full)
23.6
6) N=C(N)c1ccc(-c2ccc(-c3cc(Cl)cc(Cl)c3)o2)o1
-74.7
7) COc1ccc(C/C(C)=C(/c2ccc(OCCN3CCCCC3)cc2)c2ccc(OC(=O)NCc3ccccc3)cc2)cc1
-95
8) CC(O)c1cnc(/C=C2\SC(=S)N(Cc3ccccc3)C2=O)s1 (stereo not given)
87.8
9) O=S(=O)(Nc1ccccc1)c1ccc(C2CC3(Cl)C(Cl)=C(Cl)C2(Cl)C3(Cl)Cl)cc1 (stereo not given)
-19.8
10) O=C(O)CNC1=C(Cl)C(=O)c2ccccc2C1=O
76.7
11) O=Nc1c(-c2c(O)[nH]c3ncccc23)[nH]c2ccccc12
12.4
12) O=S(=O)(NCCCNc1nccc(-c2c(-c3ccc(F)c(O)c3)nc3occn23)n1)c1ccccc1
96.5
13) COc1cc(CNS(=O)(=O)c2ccc(C)cc2)ccc1OCc1cn(-c2ccc(Br)cc2)nn1
91.6
14) O=C(CSc1nnc2n1S(=O)(=O)c1ccccc1N2c1ccccc1)Nc1nc2ccc(F)cc2s1
85.3
15) CS(=O)(=O)Nc1cc(-c2ccc3ncnc(Nc4ccc5c(cnn5Cc5ccccn5)c4)c3c2)cnc1Cl
65.4
16) CC(=O)Cc1nsc(NC(=O)c2cc(-c3cc(Cl)cc(Cl)c3)oc2C)n1
90.8
17) Cc1nn(-c2ccccc2)c(Oc2ccccn2)c1-c1nc2ccccc2s1
82.3
18) O=C1C(Cl)=C(Nc2ccc(O)cc2)C(=O)N1Cc1ccc(Cl)cc1
74
19) CCCCOC(=O)OCc1cc(=O)c(O)co1
93.3
20) CC(C)c1ccc(NC(=O)Nc2ccc(NC(=O)CCCC(=O)NOCc3ccccc3)cc2)cc1
87.9

Hello, the source for this data is PubChem BioAssay (NCI), in case you need it.
